FYI, the data here is from paper PMC9820559.

- assay_system: T1, RSV N-RNA complex (full-length N protein in ring-shaped complexes with bacterial RNA) (human respiratory syncytial virus, UniProt P03418 1-391)
- T1 construct: human RSV nucleoprotein N, full length; concentrations are of N protomer; also called N-RNA rings; source: in lysate for the co-purification; purified (glutathione-Sepharose, thrombin, Superdex 200) as N-RNA complex; copies: 10-11
- T1 sequence (looked up): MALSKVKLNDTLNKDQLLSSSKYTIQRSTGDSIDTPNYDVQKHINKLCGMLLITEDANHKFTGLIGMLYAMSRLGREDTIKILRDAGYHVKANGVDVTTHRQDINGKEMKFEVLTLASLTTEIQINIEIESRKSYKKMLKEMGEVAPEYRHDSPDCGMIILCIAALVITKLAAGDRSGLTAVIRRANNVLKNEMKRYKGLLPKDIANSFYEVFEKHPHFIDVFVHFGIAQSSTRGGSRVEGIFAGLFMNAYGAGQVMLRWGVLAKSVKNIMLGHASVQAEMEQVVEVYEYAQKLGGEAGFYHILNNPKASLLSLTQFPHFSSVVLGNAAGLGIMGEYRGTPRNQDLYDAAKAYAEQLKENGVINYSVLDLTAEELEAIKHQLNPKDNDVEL
- experimental_details: fluorescence polarisation; 200 nM FTU-labelled Fn peptide, N-RNA varied (up to 40 µM N); 20 mM Tris pH 8.0 without salt, 0.01% Brij-35; 20 °C; 30 min incubation; single site model, or with a linear contribution where marked (*)
- run_parameters: both partners purified
Ends that are not written are not given here. * marks the point of attachment. FITC = O=C1OC2(c3ccc(O)cc3Oc3cc(O)ccc32)c2ccc(NC(=S)*)cc21
# pKd annotations
pKd is defined as minus the log10 of a concentration measured in mol/L.

The following binders have reported results that may help.
- binder: "{FITC}-DSDNDLELEDF (C-terminal 11 residues of RSV phosphoprotein P with a phosphomimetic glutamate at 237; source: synthetic peptide (Fmoc/tBu solid phase), FITC coupled in solution, HPLC purified) [F_(11SE) (FTU-labelled RSV P 11-mer, Ser237Glu)]"
  pKd: 6.06
- binder: "{FITC}-ELEDF (C-terminal 5 residues of RSV phosphoprotein P with a phosphomimetic glutamate at 237; source: synthetic peptide (Fmoc/tBu solid phase), FITC coupled in solution, HPLC purified) [F5E (FTU-labelled RSV P 5-mer, Ser237Glu)]"
  pKd: 5.23

Shift focus to the following entry.
Form field pKd, entry {FITC}-DEDNDLELEDF (C-terminal 11 residues of RSV phosphoprotein P with phosphomimetic glutamates at 232 and 237; source: synthetic peptide (Fmoc/tBu solid phase), FITC coupled in solution, HPLC purified) [F_(11EE) (FTU-labelled RSV P 11-mer, Ser232Glu/Ser237Glu)] : 6.42
